# systemName: Peptidyl-prolyl cis-trans isomerase FKBP1A (Homo sapiens)
# methodDescription: small-molecule binding to FKBP12 – biophysical, NMR detection (AID 608)
# experimentalSetup: purified FKBP12
Activity calls are given as the source filed them. How the calls were made is not given here.
Form entry, call: pick from yes (1) (active), no (0) (inactive)

Record excerpt, results attached:
compound: C[C@@H]1CC[C@]2(C(=O)O)CC[C@]3(C)C(=CCC4[C@@]5(C)CC[C@H](O)C(C)(C)C5CC[C@]43C)C2[C@H]1C (some centres not stated)
classLabel: no (0)
--
compound: CCOC(=O)C1CCN(Cc2ccccc2)CC1
classLabel: no (0)
--
compound: CN1CCC(NC(=O)c2c(F)cccc2Cl)CC1
classLabel: no (0)

Q: Look up the recorded call for O=C1CC(=O)N(c2ccccc2F)C(=S)N1 in this test.
Ans: no (0)

Q: Look up the recorded call for COCc1cc(=O)oc2cc(O)c(Cl)cc12 in this test.
Ans: no (0)

---

# systemName: Peptidyl-prolyl cis-trans isomerase FKBP1A (Homo sapiens) (UniProt P62942)
# Sequence (P62942 whole entry, looked up): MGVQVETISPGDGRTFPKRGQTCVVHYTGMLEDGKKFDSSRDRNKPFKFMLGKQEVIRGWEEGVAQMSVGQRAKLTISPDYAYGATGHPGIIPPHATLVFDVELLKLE
# methodDescription: small-molecule binding to FKBP12 – biophysical, NMR detection (AID 608)
# experimentalSetup: purified FKBP12
Active and inactive are the calls of the source. The rule behind the calls is not given here.
Form entry, call: pick from active, inactive

compound: CC(=O)c1cc(C)ccc1OC(=O)c1cccnc1
classLabel: inactive

Q: Look up the recorded call for COc1c2ccoc2c(OC)c2oc(=O)ccc12 in this test.
Ans: inactive

Q: Look up the recorded call for O=C(Nc1cccc(Cl)c1)c1cnn2cccnc12 in this test.
Ans: inactive

Q: Look up the recorded call for Cn1c(SCC(N)=O)nc2c1c(=O)[nH]c(=O)n2C in this test.
Ans: inactive

Q: Look up the recorded call for CN(C)C(=S)Nc1nc2ccccc2s1 in this test.
Ans: active

Q: Look up the recorded call for COc1ccc(-c2cc(=O)c3c(OC)c(OC)c(OC)c(OC)c3o2)cc1OC in this test.
Ans: inactive

Q: Look up the recorded call for O=C1NC(=O)C(c2ccccc2)C(=O)N1 in this test.
Ans: inactive

Q: Look up the recorded call for C#CCCCCCCCCCCCC(O)CC(O)COC(C)=O (stereo unspecified) in this test.
Ans: inactive

Q: Look up the recorded call for CSc1cccc(NC(=O)c2c(Cl)cnn2C)c1 in this test.
Ans: inactive

Q: Look up the recorded call for CC(=O)Oc1c2c(c(CC=C(C)C)c3c1C(=O)C1=C[C@@H]4CC5C(C)(C)OC(C/C=C(\C)C(=O)O)(C4=O)[C@@]15O3)OC(C)(CCC=C(C)C)C=C2 (stereo partly specified) in this test.
Ans: inactive

Q: Look up the recorded call for CC(=O)Nc1ccc(NC(C)=O)c(C(F)(F)F)c1 in this test.
Ans: inactive

---

# systemName: Peptidyl-prolyl cis-trans isomerase FKBP1A (Homo sapiens) (UniProt P62942)
# methodDescription: small-molecule binding to FKBP12 – biophysical, NMR detection (AID 608)
# experimentalSetup: purified FKBP12
Activity calls are given as the source filed them. No rule for the calls is given here.
Form entry, call: pick from active, inactive

Record excerpt, results attached:
compound: CC1(C)CC(=O)c2cnn(-c3nc4ccccc4[nH]3)c2C1
classLabel: active
--
compound: Cc1sc2nc(SC3CCOC3=O)[nH]c(=O)c2c1C (stereo not drawn)
classLabel: inactive
--
compound: COC(=O)c1noc(C)c1C(C)=O
classLabel: inactive
--
compound: CCCCCC1C(=O)CCC1CC(=O)O (stereo not drawn)
classLabel: inactive
--
compound: O=CN1CCN(C(=O)c2ccc(F)cc2)CC1
classLabel: inactive
--
compound: CCC[C@@H]1CCCCN1
classLabel: inactive

Q: Look up the recorded call for c1ccc(CNc2ncnc3nc[nH]c23)nc1 in this test.
Ans: inactive

Q: Look up the recorded call for Cc1[nH]c(=O)[nH]c(=O)c1N1CCOCC1 in this test.
Ans: inactive

Q: Look up the recorded call for O=C1C=CC(=O)N1c1ccc(N2CCOCC2)cc1 in this test.
Ans: inactive

---

# systemName: UniProt:P62942
# methodDescription: small-molecule binding to FKBP12 – biophysical, NMR detection (AID 608)
# experimentalSetup: purified FKBP12
Active and inactive are the calls of the source. No rule for the calls is given here.
Form entry, call: pick from active, inactive

compound: Cc1ccccc1CSc1nncn1N
classLabel: inactive
//
compound: O=C(O)c1cccnc1-c1nc2ccccc2s1
classLabel: inactive
//
compound: Cc1[nH]c2ccccc2c1C(=O)CSc1ncn[nH]1
classLabel: inactive
//
compound: COc1cc2nc(N3CCNCC3)nc(N)c2cc1OC
classLabel: inactive
//
compound: CSc1ccc(C2NC(=O)CCC2[N+](=O)[O-])cc1 (stereo not drawn)
classLabel: inactive
//
compound: O=C(NC(=O)N1CCOCC1)c1ccccc1
classLabel: inactive

Q: Look up the recorded call for CC(C)=CCc1c2c(c3occ(-c4ccc(O)c(O)c4)c(=O)c3c1O)C=CC(C)(C)O2 in this test.
Ans: inactive

Q: Look up the recorded call for O=C(O)c1ccccc1SCC(=O)N1CCOCC1 in this test.
Ans: inactive

Q: Look up the recorded call for O=C(c1ccncc1)N1CCN(C(=O)c2ccncc2)CC1 in this test.
Ans: inactive

Q: Look up the recorded call for O=C(O)C1CSC(c2ccccc2)N1 (stereo not drawn) in this test.
Ans: inactive

Q: Look up the recorded call for Cc1ccc(NS(=O)(=O)N2CCOCC2)cc1 in this test.
Ans: inactive

---

# systemName: Peptidyl-prolyl cis-trans isomerase FKBP1A (Homo sapiens)
# methodDescription: small-molecule binding to FKBP12 – biophysical, NMR detection (AID 608)
# experimentalSetup: purified FKBP12
The source made the active and inactive calls. How the calls were made is not given here.
Form entry, call: pick from t for active, f for inactive

Record excerpt, results attached:
molecule: CC(=O)O[C@H]1CC[C@]2(C)C3CC[C@@]4(C)C(CC5O[C@@]6(CCC(C)CO6)[C@@H](C)C54)C3CC[C@@H]2C1 (some centres not stated)
classLabel: f
//
molecule: NC(=O)CC[C@H](N)C(=O)O
classLabel: f

Q: Look up the recorded call for NC(=O)c1cc(N)ccc1N1CCCCC1 in this test.
Ans: f

Q: Look up the recorded call for O=C(CSc1ccccc1)N1CCOCC1 in this test.
Ans: t

Q: Look up the recorded call for Nc1ccc(S(=O)(=O)N2CCCCC2)cc1 in this test.
Ans: f

Q: Look up the recorded call for C=CCc1ccc(OC(=O)c2ccccc2)c(OC)c1 in this test.
Ans: f

Q: Look up the recorded call for Cc1nn(-c2ccccc2)nc1CO in this test.
Ans: f

Q: Look up the recorded call for CCOC(=O)C1CCN(Cc2ccccc2)CC1=O (configuration not stated) in this test.
Ans: f

Q: Look up the recorded call for COc1cc2c(c(OC)c1OC)-c1ccc(OC)c(=O)cc1[C@@H](NC(C)=O)CC2 in this test.
Ans: f

Q: Look up the recorded call for O=S1(=O)CCC(NC(=S)Nc2ccccc2)C1 (configuration not stated) in this test.
Ans: f

Q: Look up the recorded call for [O-][n+]1cc(O)c(CN2CCOCC2)c2ccccc21 in this test.
Ans: f

Q: Look up the recorded call for CC(=O)O[C@@H]1c2c(ccc3ccc(=O)oc23)OC(C)(C)[C@@H]1OC(=O)CC(C)C in this test.
Ans: f

---

# systemName: Peptidyl-prolyl cis-trans isomerase FKBP1A (Homo sapiens) (UniProt P62942)
# methodDescription: small-molecule binding to FKBP12 – biophysical, NMR detection (AID 608)
# experimentalSetup: purified FKBP12
Calls of active or inactive are those of the source. How the calls were made is not given here.
Form entry, call: pick from active, inactive

Record excerpt, results attached:
compound: CCNC(CC(=O)Nc1ccc(O)cc1)C(=O)O (centres undefined)
classLabel: inactive
--
compound: COc1ccc2c(c1O)-c1c(OC)c(OC)cc3c1[C@H](C2)N(C)CC3
classLabel: inactive
--
compound: O=c1ccc2ccc(O)cc2o1
classLabel: inactive
--
compound: O=c1cc(-c2ccc(O)cc2)oc2cc(O)cc(O)c12
classLabel: inactive
--
compound: CN1C(=O)/C(=C/c2ccc(O)cc2O)SC1=S
classLabel: inactive
--
compound: O=C(c1ccccc1)c1ccccc1C(=O)N1CCOCC1
classLabel: inactive
--
compound: Cn1cnc2c1c(=O)[nH]c(=O)n2C
classLabel: inactive
--
compound: COc1cccc(N2CCNCC2)c1
classLabel: inactive
--
compound: NC(=O)C1CCN(c2ncnc(N)c2[N+](=O)[O-])CC1
classLabel: inactive
--
compound: CCSc1nnc(-c2ccccc2N)c(=O)[nH]1
classLabel: inactive

Q: Look up the recorded call for CN1C(CC(=O)c2ccccc2)CCCC1CC(O)c1ccccc1 (centres undefined) in this test.
Ans: inactive

Q: Look up the recorded call for Cc1cc(S(=O)(=O)N2CCCC2)ccc1OCC(=O)N1CCOCC1 in this test.
Ans: inactive

Q: Look up the recorded call for CC(C)c1c(O)ccc2c1CCC1[C@@](C)(CO)CCC[C@]21C (some centres undefined) in this test.
Ans: inactive

Q: Look up the recorded call for COc1cc(OC)c2c(c1)O[C@H](c1ccc(OC)c(OC)c1)[C@@H](O)C2 in this test.
Ans: inactive

Q: Look up the recorded call for CC(=O)O[C@H]1CCC2(C)C3=C(CCC2C1(C)C)[C@]1(C)CCC(C(C)CCC=C(C)C)[C@@]1(C)CC3 (some centres undefined) in this test.
Ans: inactive

Q: Look up the recorded call for C=C(C)[C@@H]1CC[C@]2(CO)CC[C@]3(C)[C@H](CCC4[C@@]5(C)CC[C@H](O)C(C)(C)C5CC[C@]43C)C12 (some centres undefined) in this test.
Ans: inactive

Q: Look up the recorded call for C[C@H](CCC(=O)O)[C@H]1CCC2C3C(CC[C@@]21C)[C@@]1(C)CC[C@@H](O)C[C@H]1C[C@H]3O (some centres undefined) in this test.
Ans: inactive

Q: Look up the recorded call for CC1(C)CC23C(=O)CCC(O)C2(C)CCC13 (centres undefined) in this test.
Ans: inactive

Q: Look up the recorded call for Cc1ccc(NS(=O)(=O)N2CCCCC2)cc1 in this test.
Ans: active

Q: Look up the recorded call for c1ccc2c(c1)nc(-c1cscn1)n2Cc1ccc(-c2nn[nH]n2)cc1 in this test.
Ans: inactive

Q: Look up the recorded call for O=C(O)c1cccc(-n2cccc2)c1 in this test.
Ans: inactive

Q: Look up the recorded call for Cc1nc(SCC#N)c2c(C)c(C)sc2n1 in this test.
Ans: inactive

Q: Look up the recorded call for O=C1CNCc2[nH]c3ccccc3c2N1c1ccccc1 in this test.
Ans: inactive

Q: Look up the recorded call for NS(=O)(=O)c1ccc(NC(=O)C2CC2)cc1 in this test.
Ans: inactive
